Biological target: D2 (Homo sapiens (Human))
Readout: Ki

Chem Smiles	Measured Result
CN1CCN2c3c(cccc31)[C@@H]1CN(CCCC(=O)c3ccc(F)cc3)CC[C@@H]12	49 nM
